Please go through the items and note down their % Inhibition of Aflatoxin at 50 μM.
# Tested on: aflatoxines production
# assay-summary: microbe, parasite or virus in culture
# Format: cell-based, Aspergillus parasiticus
# test-conditions: 50 μM
Write the number in % without appending the unit.

Cn1nc(C(F)F)c(C(=O)NC2CCCCC2c2ccccc2)c1F (stereo not drawn) [Example 212] has a reported % Inhibition of Aflatoxin at 50 μM of 100

Entry under test: Cn1nc(C(F)F)c(C(=O)N(C[Si](C)(C)c2ccsc2)C2CC2)c1F [Example 248] . Its % Inhibition of Aflatoxin at 50 μM was 100

Entry under test: CC(Cc1cccc(Cl)c1)NC(=O)c1c(C(F)F)nn(C)c1F (stereo not drawn) [Example 50] . Its % Inhibition of Aflatoxin at 50 μM was 100

Lookup result for COC(CNC(=O)c1c(C(F)F)nn(C)c1Cl)c1ccc(Cl)cc1Cl (stereo not drawn) [Example 74] ; measured % Inhibition of Aflatoxin at 50 μM: 100

Summary for this molecule, Cc1ccsc1CCNC(=O)c1c(C(F)F)nn(C)c1Cl [Example 163] : % Inhibition of Aflatoxin at 50 μM is 98

molecule Cn1nc(C(F)F)c(C(=O)NCCc2csc3c2CCCC3)c1F [Example 170] , % Inhibition of Aflatoxin at 50 μM observed: 100

Note to self: % Inhibition of Aflatoxin at 50 μM recorded for COC(CNC(=O)c1c(C(F)F)nn(C)c1F)c1ccc(Cl)cc1Cl (stereo not drawn) [Example 75] was 100

Entry Cc1cc(C)c(CCN(C)C(=O)c2c(C(F)F)nn(C)c2F)c(C)c1 [Example 135] ; % Inhibition of Aflatoxin at 50 μM = 100

# % Inhibition of Aflatoxin at 50 μM (molecule: CC(CNC(=O)c1c(C(F)F)nn(C)c1Cl)c1ccccc1Cl (stereo not drawn) [Example 40] ) is 99

----------
# System: Alternaria solani
# assay-summary: In vivo preventive test on Alternaria solani (tomato)
# test-conditions: 500 ppm of active ingredient, evaluated 7 days after inoculation
Exercise: state measured Efficacy for each of the molecules provided.
Report only the number, with the unit % understood.

Efficacy for COC(c1ccc(Cl)cc1Cl)C(C)NC(=O)c1c(C(F)F)nn(C)c1F (centres unmarked) is 100

Cn1nc(C(F)F)c(C(=O)NCC(C)(C)c2ccc(Cl)cc2)c1Cl has a reported Efficacy of 100

For record CCN(CCc1ccc(Cl)cc1)C(=O)c1c(C(F)F)nn(C)c1Cl the listed Efficacy is 80

// Efficacy lookup, molecule = Cn1nc(C(F)F)c(C(=O)N(C[Si](C)(C)c2ccc(Cl)cc2Cl)C2CC2)c1F , result: 94

Record CCC(CNC(=O)c1c(C(F)F)nn(C)c1F)c1ncc(C(F)(F)F)cc1Cl (centres unmarked) . Reported Efficacy: 100

Reported Efficacy of Cn1nc(C(F)F)c(C(=O)N(C[Si](C)(C)c2ccsc2)C2CC2)c1Cl : 94

Looking up Cn1nc(C(F)F)c(C(=O)NCC(C)(C)c2cc(Cl)cc(Cl)c2)c1F , I see its Efficacy listed as 80

The recorded Efficacy for Cn1nc(C(F)F)c(C(=O)NC(C)(C)Cc2cccc(Oc3ccccc3)c2)c1Cl is 95

----------
# Tested on: aflatoxines production
# assay-summary: microbe, parasite or virus in culture
# Type: cell-based, Aspergillus parasiticus
# test-conditions: 50 μM
measured-metric: % Inhibition of Aflatoxin at 50 μM

get_value(item= CC(Cc1ccc(Cl)cc1Cl)NC(=S)c1c(C(F)F)nn(C)c1Cl (centres unmarked) , readout=% Inhibition of Aflatoxin at 50 μM) returns 100%

Data point: CCC(CNC(=O)c1c(C(F)F)nn(C)c1F)c1ncc(C(F)(F)F)cc1Cl (centres unmarked) ; % Inhibition of Aflatoxin at 50 μM = 100%

Summary for this compound, Cc1scc(CCNC(=O)c2c(C(F)F)nn(C)c2Cl)c1C : % Inhibition of Aflatoxin at 50 μM is 100%

The value of % Inhibition of Aflatoxin at 50 μM measured for the compound CC(Cc1cc(Cl)cc(Cl)c1)NC(=O)c1c(C(F)F)nn(C)c1Cl (centres unmarked) turned out to be 100%

Sample Cn1nc(C(F)F)c(C(=O)NCC(C)(C)c2cc(Cl)ccc2Cl)c1F ; % Inhibition of Aflatoxin at 50 μM observed: 99%
